Molecular target: fXIa (human, UniProt P03951 19-625)
Sequence (P03951 19-625 limits assumed): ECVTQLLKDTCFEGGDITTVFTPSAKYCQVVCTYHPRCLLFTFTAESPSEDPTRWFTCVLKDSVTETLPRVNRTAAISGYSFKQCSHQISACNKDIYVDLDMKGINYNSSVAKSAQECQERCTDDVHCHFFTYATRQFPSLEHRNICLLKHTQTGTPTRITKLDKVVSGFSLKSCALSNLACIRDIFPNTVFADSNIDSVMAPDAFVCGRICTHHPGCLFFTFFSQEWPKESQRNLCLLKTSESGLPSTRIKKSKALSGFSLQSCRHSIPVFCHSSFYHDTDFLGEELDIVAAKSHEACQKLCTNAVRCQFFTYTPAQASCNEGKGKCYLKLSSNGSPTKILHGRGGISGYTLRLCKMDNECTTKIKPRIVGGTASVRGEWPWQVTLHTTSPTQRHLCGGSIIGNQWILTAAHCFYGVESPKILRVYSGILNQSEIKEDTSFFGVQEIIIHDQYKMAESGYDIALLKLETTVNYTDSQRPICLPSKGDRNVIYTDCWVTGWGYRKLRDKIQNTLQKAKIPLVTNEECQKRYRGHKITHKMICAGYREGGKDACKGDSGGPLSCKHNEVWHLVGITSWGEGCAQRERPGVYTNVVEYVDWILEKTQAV
Assay: cell-based or functional assay
Where no end group is shown, it is not given here.
result type: IC50, enzyme activity on synthetic substrate
Quick note: number first, unit second.

GET /value?item= EVO23 (designed binder, not fully specified; cysteine pairing not given here, Modified TFPI-D2 Kunitz domain; made as m1) KPDFCFLENDPGPCRALKRRYFYNNQTKQCERFYYGGCFGNMNNFVTLEECKNICEDG &field=IC50, enzyme activity on synthetic substrate returns 0.5 µM

GET /value?item= EVO24 (designed binder, not fully specified; cysteine pairing not given here, Modified TFPI-D2 Kunitz domain; made as m1) KPDFCFLENDPGPCRALKRRYFYNNQTKQCERFYYGGCLGNMNNFETLEECKNICEDG &field=IC50, enzyme activity on synthetic substrate returns 0.5 µM

GET /value?item= EVO21 (designed binder, not fully specified; ends and bridges not checked, Modified TFPI-D2 Kunitz domain; made as m1) KPDFCFLENDPGPCRALKRRYFYNNQTKQCERFGYGGCLGNMNNFVTLEECKNICEDG &field=IC50, enzyme activity on synthetic substrate returns 0.8 µM

GET /value?item= EVO214 (designed binder, not fully specified; ends and bridges not checked, Modified TFPI-D2 Kunitz domain; made as m1) KPDFCFLENDPGPCRALKLRYFYNNQTKQCERFGYGGCLGNMNNFVTLEECKNICEDG &field=IC50, enzyme activity on synthetic substrate returns 0.2 µM
